Here we gather log10(Ki) data for Plasminogen (Homo sapiens, UniProt P00747) reported by several publications.
// do not treat as linear: log10 of Ki, unit µM

{"Compound": "CCOC(=O)C(Oc1ccc2c(c1)CN(C(=N)N)CC2)c1ccc(O[C@H]2CCNC2)cc1 (stereo partly drawn)", "Measured property": "log10(Ki)", "Result number": 1.60}
{"Compound": "N=C(N)c1ccc(CNC(=O)CNC(=O)[C@@H](CO)NS(=O)(=O)c2ccc3ccccc3c2)cc1", "Measured property": "log10(Ki)", "Result number": 1.51}
{"Compound": "N=C(N)N1CCC(Oc2ccc(C(Oc3ccc4c(c3)CN(C(=N)N)CC4)C(=O)O)cc2)CC1 (stereo not drawn)", "Measured property": "log10(Ki)", "Result number": 1.64}
{"Compound": "N=C(N)c1ccc(CNC(=O)[C@@H]2CCCN2C(=O)[C@@H](CCCCN)NS(=O)(=O)Cc2ccccc2)cc1", "Measured property": "log10(Ki)", "Result number": -1.20}
{"Compound": "N=C(N)c1ccc2cc(C(=O)Nc3ccc(C(N)=O)cc3)ccc2c1", "Measured property": "log10(Ki)", "Result number": 0.29}

Please turn your attention to the following entry.
**Query** # query: log10(Ki) of entry N=C(N)NCCC(=O)N1CCN(C(=O)[C@H](Cc2cccc(C(=N)N)c2)NS(=O)(=O)c2ccc(-c3ccccc3)cc2)CC1
**Result** 0.49
